Source listed as patent US20240398773A1.

assay: Study CL-004 plasma PK; assay type: in vivo, human; conditions: human, plasma; Day 1, 300 mg dose
readout.name: Cmax (ng/mL)
Write the answer as a number in ng/mL, unit excluded.

Q: Query Cmax for O[C@@](Cn1cnnn1)(c1ccc(F)cc1F)C(F)(F)c1ccc(-c2ccc(OCC(F)(F)F)cc2)cn1
Ans: 407

###

test: Study CL-004 plasma PK; assay type: in vivo, human; settings: human, plasma, 600 mg, 600 mg BID treatment group
readout.name: concentration at 168 day (ng/mL)
Write the answer as a number in ng/mL, unit excluded.

Q: Query concentration at 168 day for O[C@@](Cn1cnnn1)(c1ccc(F)cc1F)C(F)(F)c1ccc(-c2ccc(OCC(F)(F)F)cc2)cn1
Ans: 1300
